test: Percentage of tracer or metabolite(EME) in baboon plasma at 30 min after injection of the compound; type: ADME, cell-free; details: cercopithecidae, 0.5 h
Tracer reference

molecule	result
COC(=O)C1C2CCC(C[C@@H]1OC(=O)c1ccc(I)cc1)N2C (some centres undefined)	2.6%

Requested read-out: Tracer. Entry: COC(=O)[C@H]1[C@@H](OC(=O)c2ccccc2)C[C@@H]2CC[C@H]1N2C
12%

Query COC(=O)C1C2CCC(C[C@@H]1OC(=O)c1cccc(I)c1)N2C (some centres undefined) next
4%

Also need COC(=O)C1C2CCC(C[C@@H]1OC(=O)c1ccccc1I)N2C (some centres undefined) , thanks.
0.2%

====

biological target: Sodium-dependent dopamine transporter (Rattus norvegicus, UniProt P23977); assay: Concentration inhibiting [3H]cocaine binding site to rat striatal membranes.
Sequence (P23977 whole entry): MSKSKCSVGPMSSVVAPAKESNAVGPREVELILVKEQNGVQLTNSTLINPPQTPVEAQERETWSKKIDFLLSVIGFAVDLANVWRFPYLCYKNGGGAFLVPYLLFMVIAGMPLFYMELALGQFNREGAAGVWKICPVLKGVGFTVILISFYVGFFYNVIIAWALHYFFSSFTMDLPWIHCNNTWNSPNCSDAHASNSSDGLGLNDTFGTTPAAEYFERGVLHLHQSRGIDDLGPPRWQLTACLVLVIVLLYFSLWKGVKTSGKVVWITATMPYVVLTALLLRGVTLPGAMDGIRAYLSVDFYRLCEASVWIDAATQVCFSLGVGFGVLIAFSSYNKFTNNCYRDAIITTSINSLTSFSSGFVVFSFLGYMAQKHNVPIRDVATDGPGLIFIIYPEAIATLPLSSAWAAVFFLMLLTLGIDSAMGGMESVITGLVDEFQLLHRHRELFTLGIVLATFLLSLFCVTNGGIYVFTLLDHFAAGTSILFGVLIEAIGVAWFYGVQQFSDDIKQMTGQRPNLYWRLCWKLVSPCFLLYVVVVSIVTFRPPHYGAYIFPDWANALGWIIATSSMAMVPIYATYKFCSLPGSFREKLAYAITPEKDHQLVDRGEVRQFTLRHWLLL
recordedEndpoint: pIC50
The value called pIC50 is obtained by taking minus log10 of the concentration in mol/L.

Provide value of pIC50 for this record tested with Sodium-dependent dopamine transporter (Rattus norvegicus, UniProt P23977): COC(=O)C1C2CCC(C[C@@H]1OC(=O)c1ccccc1I)N2C (stereo partly specified)
6.46

====

assay: Percentage of tracer or metabolite (unchanged) in baboon plasma at 5 min after injection of the compound; assay type: ADME, cell-free; conditions: cercopithecidae
Listing of recorded Tracer by entry.
Please answer using the number first and the unit second.

molecule	Tracer
COC(=O)[C@H]1[C@@H](OC(=O)c2ccccc2)C[C@@H]2CC[C@H]1N2C [COCAINE]	44%

# get_value(readout='Tracer', item= COC(=O)C1C2CCC(C[C@@H]1OC(=O)c1ccccc1I)N2C (some centres undefined) )
79%

Also, COC(=O)C1C2CCC(C[C@@H]1OC(=O)c1ccc(I)cc1)N2C (some centres undefined) please.
60%

Then what about the molecule COC(=O)C1C2CCC(C[C@@H]1OC(=O)c1cccc(I)c1)N2C (some centres undefined) ?
77%

====

Some compounds, each annotated with its measured Tracer.
test: Percentage of tracer or metabolite (acid metabolites) in baboon plasma at 10 min after injection of the compound; assay type: ADME, cell-free; settings: cercopithecidae
Answer format: numeric, % implied, no suffix.

Answered cases to consult:
compound	numericReadout
COC(=O)C1C2CCC(C[C@@H]1OC(=O)c1ccc(I)cc1)N2C (some centres undefined)	45
COC(=O)C1C2CCC(C[C@@H]1OC(=O)c1ccccc1I)N2C (some centres undefined)	52

Reported Tracer, compound COC(=O)[C@H]1[C@@H](OC(=O)c2ccccc2)C[C@@H]2CC[C@H]1N2C [COCAINE] : ____
38

Try this compound next: COC(=O)C1C2CCC(C[C@@H]1OC(=O)c1cccc(I)c1)N2C (some centres undefined)
35

Origin of values: ChEMBL document CHEMBL1126073
